assayInfo: AUC (infinity) in Cynomolgous monkey at 1 mg/kg, iv by LC-MS/MS analysis
Assay type: ADME, organism-based, Macaca fascicularis
testSettings: cynomolgus monkey, in vivo
readoutKind: AUC(0-inf) (ng·h/mL)
One number for each entry, in ng·h/mL.

// query Can you look up the measured AUC(0-inf) of C#CC1(NC(=O)C(=O)c2c(C)c(C(=O)Nc3ccc(F)c(C#N)c3)n(C)c2C)COC1 for me?
// result 2240

---

assayedTarget: Broad substrate specificity ATP-binding cassette transporter ABCG2 (Homo sapiens, UniProt Q9UNQ0)
Sequence (Q9UNQ0 whole entry): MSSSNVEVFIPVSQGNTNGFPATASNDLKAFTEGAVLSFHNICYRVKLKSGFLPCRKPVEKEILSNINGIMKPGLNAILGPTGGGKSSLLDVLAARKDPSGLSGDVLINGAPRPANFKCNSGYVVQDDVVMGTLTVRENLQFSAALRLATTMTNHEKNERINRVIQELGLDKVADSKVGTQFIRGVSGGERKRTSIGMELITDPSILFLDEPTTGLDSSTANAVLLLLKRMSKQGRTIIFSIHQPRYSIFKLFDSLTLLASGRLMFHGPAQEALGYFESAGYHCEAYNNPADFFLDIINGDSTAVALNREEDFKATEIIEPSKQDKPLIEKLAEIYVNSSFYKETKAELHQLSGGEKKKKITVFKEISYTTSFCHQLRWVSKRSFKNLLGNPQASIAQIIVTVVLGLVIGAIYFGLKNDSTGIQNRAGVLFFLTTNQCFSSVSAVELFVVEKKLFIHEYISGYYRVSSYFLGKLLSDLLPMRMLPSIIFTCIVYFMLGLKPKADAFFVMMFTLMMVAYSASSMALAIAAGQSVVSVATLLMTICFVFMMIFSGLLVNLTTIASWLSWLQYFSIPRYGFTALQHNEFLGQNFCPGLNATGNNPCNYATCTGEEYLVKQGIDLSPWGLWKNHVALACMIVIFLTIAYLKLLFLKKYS
assayInfo: Inhibition of BCRP in human Caco-2 cells using estrone 3-sulfate as substrate
readoutKind: IC50

// query Can you look up the measured IC50 of C#CC1(NC(=O)C(=O)c2c(C)c(C(=O)Nc3ccc(F)c(C#N)c3)n(C)c2C)COC1 for me?
// result > 11.8 µM
